# assayed-system: Her2 (Homo sapiens, UniProt P04626)
# Sequence (P04626 23-1255): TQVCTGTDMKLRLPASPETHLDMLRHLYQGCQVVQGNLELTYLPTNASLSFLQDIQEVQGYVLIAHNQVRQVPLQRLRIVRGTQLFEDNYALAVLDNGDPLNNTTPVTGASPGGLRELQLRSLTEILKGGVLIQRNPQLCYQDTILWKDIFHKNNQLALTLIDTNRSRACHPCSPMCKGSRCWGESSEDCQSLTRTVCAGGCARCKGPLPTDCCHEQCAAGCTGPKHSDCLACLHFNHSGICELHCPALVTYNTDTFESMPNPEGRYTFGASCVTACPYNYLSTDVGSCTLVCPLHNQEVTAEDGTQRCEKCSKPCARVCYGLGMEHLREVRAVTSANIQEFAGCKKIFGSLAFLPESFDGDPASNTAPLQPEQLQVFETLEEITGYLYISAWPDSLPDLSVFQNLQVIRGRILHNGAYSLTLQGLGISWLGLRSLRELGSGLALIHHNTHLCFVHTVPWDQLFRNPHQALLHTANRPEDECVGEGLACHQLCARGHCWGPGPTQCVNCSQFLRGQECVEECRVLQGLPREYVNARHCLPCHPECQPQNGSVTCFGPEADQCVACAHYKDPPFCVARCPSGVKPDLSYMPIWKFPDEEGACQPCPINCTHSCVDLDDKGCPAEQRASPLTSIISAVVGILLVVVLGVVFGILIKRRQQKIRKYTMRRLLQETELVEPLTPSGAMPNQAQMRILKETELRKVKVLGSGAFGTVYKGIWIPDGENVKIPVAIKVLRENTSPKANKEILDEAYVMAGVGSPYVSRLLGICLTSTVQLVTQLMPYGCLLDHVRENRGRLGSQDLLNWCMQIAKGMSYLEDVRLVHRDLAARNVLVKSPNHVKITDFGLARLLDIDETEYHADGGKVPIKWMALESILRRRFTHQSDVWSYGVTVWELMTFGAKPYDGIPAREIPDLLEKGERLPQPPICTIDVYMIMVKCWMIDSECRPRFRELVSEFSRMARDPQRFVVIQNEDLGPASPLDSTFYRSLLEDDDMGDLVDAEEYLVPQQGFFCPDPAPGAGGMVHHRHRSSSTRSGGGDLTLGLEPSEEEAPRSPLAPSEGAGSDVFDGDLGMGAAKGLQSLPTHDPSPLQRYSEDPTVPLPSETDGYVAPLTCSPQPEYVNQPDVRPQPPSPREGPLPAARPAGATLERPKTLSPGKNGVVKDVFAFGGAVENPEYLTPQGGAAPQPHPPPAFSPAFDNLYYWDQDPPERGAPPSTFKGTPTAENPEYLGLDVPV
quantity-name: IC50
Include the unit after the number when you answer.

State its IC50 on Her2 (Homo sapiens, UniProt P04626): `COc1ccc2c(c1)/C(=N\Nc1ncnc3[nH]cnc13)C(=O)N2` 150 nM

----------
quantity-name: melting point

O=C1Nc2ccc(F)cc2C1=NNC(=O)c1ccc(Nc2ncnc3[nH]cnc23)cc1
> 300 °C
O=C1Nc2ccc([N+](=O)[O-])cc2C1=NNC(=O)c1ccc(Nc2ncnc3[nH]cnc23)cc1
> 300 °C
O=C1Nc2ccc(Cl)cc2/C1=N\Nc1ncnc2[nH]cnc12
296 to 298 °C
O=C1Nc2ccc(F)cc2/C1=N\Nc1ncnc2[nH]cnc12
> 300 °C
O=C1Nc2ccc(Cl)cc2C1=NNC(=O)c1ccc(Nc2ncnc3[nH]cnc23)cc1
> 300 °C

For the molecule shown here, `Cc1ccc2c(c1)C(=NNC(=O)c1ccc(Nc3ncnc4[nH]cnc34)cc1)C(=O)N2` , give the reported melting point. > 300 °C

Where do these numbers come from? They come from paper PMC10051310.
